The reported numbers originate from patent US20250236673A1.

Biological target: T1, human serum albumin (human, UniProt P02768 25-609)
T1 construct: Immobilised by amine coupling on a C1 chip; also called HSA
T1 sequence (P02768 25-609 limits assumed): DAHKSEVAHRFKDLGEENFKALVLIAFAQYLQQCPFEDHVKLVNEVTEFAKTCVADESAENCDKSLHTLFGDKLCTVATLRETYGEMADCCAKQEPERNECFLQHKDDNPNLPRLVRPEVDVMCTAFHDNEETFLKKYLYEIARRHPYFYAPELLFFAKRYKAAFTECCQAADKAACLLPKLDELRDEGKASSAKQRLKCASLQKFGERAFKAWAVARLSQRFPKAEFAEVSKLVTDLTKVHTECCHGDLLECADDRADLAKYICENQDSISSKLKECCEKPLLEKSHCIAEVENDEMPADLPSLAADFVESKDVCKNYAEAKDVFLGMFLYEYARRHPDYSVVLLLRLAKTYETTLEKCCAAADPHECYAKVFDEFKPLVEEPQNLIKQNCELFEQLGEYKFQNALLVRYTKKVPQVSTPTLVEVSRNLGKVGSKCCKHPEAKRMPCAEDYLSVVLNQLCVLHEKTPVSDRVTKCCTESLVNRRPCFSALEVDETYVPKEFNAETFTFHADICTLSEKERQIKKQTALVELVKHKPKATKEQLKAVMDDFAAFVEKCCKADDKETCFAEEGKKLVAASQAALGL
Experiment: SPR Biacore 8K+, HSA amine-coupled on C1 chip, ISVD analyte, 1:1 fit
Observable: koff (s⁻¹)

* T028501812 (VHH, K64H vs precursor T028501805; also called HSA006A06(K64H, K83R)) VHH: EVQLVESGGGVVQPGGSLRLSCAASGFTFRSFGMSWVRQAPGKGPEWVSSISGSGSDTLYADSVHGRFTISRDNSKNTLYLQMNSLRPEDTALYYCTIGGSLSRSSQGTLVTVSS | 0.00102
* T028501806 (VHH, K43E vs precursor T028501805; also called HSA006A06(K43E, K83R)) VHH: EVQLVESGGGVVQPGGSLRLSCAASGFTFRSFGMSWVRQAPGEGPEWVSSISGSGSDTLYADSVKGRFTISRDNSKNTLYLQMNSLRPEDTALYYCTIGGSLSRSSQGTLVTVSS | 0.00108
* T028501815 (VHH, K75R vs precursor T028501805; also called HSA006A06(K75R, K83R)) VHH: EVQLVESGGGVVQPGGSLRLSCAASGFTFRSFGMSWVRQAPGKGPEWVSSISGSGSDTLYADSVKGRFTISRDNSRNTLYLQMNSLRPEDTALYYCTIGGSLSRSSQGTLVTVSS | 0.00127
* T028501805 (VHH, also called ALB00622; HSA006A06(K83R)) VHH: EVQLVESGGGVVQPGGSLRLSCAASGFTFRSFGMSWVRQAPGKGPEWVSSISGSGSDTLYADSVKGRFTISRDNSKNTLYLQMNSLRPEDTALYYCTIGGSLSRSSQGTLVTVSS | 0.000992
* T028501833 (VHH, K43R vs precursor T028501805; also called HSA006A06(K43R, K83R)) VHH: EVQLVESGGGVVQPGGSLRLSCAASGFTFRSFGMSWVRQAPGRGPEWVSSISGSGSDTLYADSVKGRFTISRDNSKNTLYLQMNSLRPEDTALYYCTIGGSLSRSSQGTLVTVSS | 0.000906
* T028501834 (VHH, K64R vs precursor T028501805; also called HSA006A06(K64R, K83R)) VHH: EVQLVESGGGVVQPGGSLRLSCAASGFTFRSFGMSWVRQAPGKGPEWVSSISGSGSDTLYADSVRGRFTISRDNSKNTLYLQMNSLRPEDTALYYCTIGGSLSRSSQGTLVTVSS | 0.00112
